# Test system: Klebsiella pneumoniae
# protocolDescription: Antibacterial activity against Klebsiella pneumoniae isolate Kp38045 harboring IncL/M plasmid and blaIMP-4-qacG2-aacA4-catB3 array by Etest method
# Assay type: functional
Kindly state MIC for each of the entries shown.
Numbers only; they are read as µg/mL.

Ask: Requested read-out: MIC. Entry: NC[C@H]1O[C@H](O[C@H]2[C@H](O)[C@@H](O[C@H]3O[C@H](CO)[C@@H](O)[C@H](N)[C@H]3O)[C@H](N)C[C@@H]2N)[C@H](N)C[C@@H]1O [TOBRAMYCIN]
Result: 8

Ask: Requested read-out: MIC. Entry: CO/N=C(\C(=O)N[C@@H]1C(=O)N2C(C(=O)O)=C(COC(C)=O)CS[C@H]12)c1csc(N)n1 [CEFOTAXIME]
Result: 32

Ask: Requested read-out: MIC. Entry: C[C@@H](O)[C@H]1C(=O)N2C(C(=O)O)=C(SCCNC=N)C[C@H]12 [IMIPENEM ANHYDROUS]
Result: 0.75
